target: Aurora B (Homo sapiens); construct: Active Aurora B enzyme (recombinant residues 1-344); test: Aurora B enzyme inhibition (time-resolved fluorescence, histone H3 peptide); settings: 1 mM ATP
Sequence (Q96GD4 whole entry, the tested form may be a part): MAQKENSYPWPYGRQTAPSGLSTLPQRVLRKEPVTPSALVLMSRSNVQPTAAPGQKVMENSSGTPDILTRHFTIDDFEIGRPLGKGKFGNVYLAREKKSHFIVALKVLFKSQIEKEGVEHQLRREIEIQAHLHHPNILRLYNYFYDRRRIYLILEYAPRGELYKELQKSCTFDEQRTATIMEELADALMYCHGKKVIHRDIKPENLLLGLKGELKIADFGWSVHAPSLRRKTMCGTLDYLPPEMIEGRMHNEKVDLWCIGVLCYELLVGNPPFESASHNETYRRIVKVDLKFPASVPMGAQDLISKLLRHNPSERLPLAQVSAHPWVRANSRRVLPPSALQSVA
Sequence (Q9NQS7 826-918 partner limits assumed): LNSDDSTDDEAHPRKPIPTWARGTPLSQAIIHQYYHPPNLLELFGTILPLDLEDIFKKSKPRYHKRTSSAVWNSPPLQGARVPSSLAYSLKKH
pKi: −log10 of the molar value.
Item-by-item account of pKi

Solved cases (5 shown):
# compound, pKi
rows = [
    ("CC(O)Cn1cc(Nc2ncc(F)c(NC3C4C=CC(C4)C3C(N)=O)n2)cn1 (mixture of isomers)", "> 7.00"),
    ("CNC(=O)[C@@H]1[C@H](Nc2nc(Nc3cnn(C)c3)ncc2C(F)(F)F)[C@H]2C=C[C@@H]1C2.CNC(=O)[C@H]1[C@@H](Nc2nc(Nc3cnn(C)c3)ncc2C(F)(F)F)[C@@H]2C=C[C@H]1C2 (mixture of isomers)", "> 7.00"),
    ("Cn1cc(Nc2ncc(Cl)c(Nc3ccccc3C3(O)CCOCC3)n2)cn1", "> 7.00"),
    ("Cn1cc(Nc2ncc(Cl)c(N[C@@H]3[C@H]4CC[C@H](C4)[C@@H]3C(N)=O)n2)cn1.Cn1cc(Nc2ncc(Cl)c(N[C@H]3[C@@H]4CC[C@@H](C4)[C@H]3C(N)=O)n2)cn1 (mixture of isomers)", "> 7.00"),
    ("Cn1cc(Nc2ncc(Cl)c(Nc3ccccc3C3(O)CCC3)n2)cn1", "> 7.00"),
]

// fetch pKi given entry CCOC(=O)[C@@H]1[C@H](Nc2nc(Nc3cnn(C)c3)ncc2F)[C@H]2C=C[C@@H]1C2.CCOC(=O)[C@H]1[C@@H](Nc2nc(Nc3cnn(C)c3)ncc2F)[C@@H]2C=C[C@H]1C2 (mixture of isomers) 6.00 to 7.00

// fetch pKi given entry CC(O)Cn1cc(Nc2ncc(C(F)(F)F)c(NC3C4CCC(C4)C3C(N)=O)n2)cn1 (mixture of isomers) 6.00 to 7.00

// fetch pKi given entry CNC(=O)Cn1cc(Nc2ncc(Cl)c(N[C@H]3[C@@H](C(N)=O)[C@@H]4C=C[C@H]3C4)n2)cn1 > 7.00

// fetch pKi given entry CS(=O)(=O)CCn1cc(Nc2ncc(Br)c(N[C@H]3[C@@H](C(N)=O)[C@@H]4C=C[C@H]3C4)n2)cn1 > 7.00

// fetch pKi given entry Cn1cc(Nc2ncc(Cl)c(N[C@H]3[C@@H](C(N)=O)[C@@H]4C=C[C@H]3C4)n2)cn1 > 7.00

// fetch pKi given entry CCn1cc(Nc2ncc(C(N)=O)c(NC3C4C=CC(C4)C3C(N)=O)n2)cn1 (mixture of isomers) > 7.00

// fetch pKi given entry Cn1cc(Nc2ncc(C(N)=O)c(NC3C4C=CC(C4)C3C(N)=O)n2)cn1 (mixture of isomers) > 7.00

###

Item-by-item account of IC50
Biological target: KDR (Homo sapiens, UniProt P35968)
Sequence (P35968 20-1356): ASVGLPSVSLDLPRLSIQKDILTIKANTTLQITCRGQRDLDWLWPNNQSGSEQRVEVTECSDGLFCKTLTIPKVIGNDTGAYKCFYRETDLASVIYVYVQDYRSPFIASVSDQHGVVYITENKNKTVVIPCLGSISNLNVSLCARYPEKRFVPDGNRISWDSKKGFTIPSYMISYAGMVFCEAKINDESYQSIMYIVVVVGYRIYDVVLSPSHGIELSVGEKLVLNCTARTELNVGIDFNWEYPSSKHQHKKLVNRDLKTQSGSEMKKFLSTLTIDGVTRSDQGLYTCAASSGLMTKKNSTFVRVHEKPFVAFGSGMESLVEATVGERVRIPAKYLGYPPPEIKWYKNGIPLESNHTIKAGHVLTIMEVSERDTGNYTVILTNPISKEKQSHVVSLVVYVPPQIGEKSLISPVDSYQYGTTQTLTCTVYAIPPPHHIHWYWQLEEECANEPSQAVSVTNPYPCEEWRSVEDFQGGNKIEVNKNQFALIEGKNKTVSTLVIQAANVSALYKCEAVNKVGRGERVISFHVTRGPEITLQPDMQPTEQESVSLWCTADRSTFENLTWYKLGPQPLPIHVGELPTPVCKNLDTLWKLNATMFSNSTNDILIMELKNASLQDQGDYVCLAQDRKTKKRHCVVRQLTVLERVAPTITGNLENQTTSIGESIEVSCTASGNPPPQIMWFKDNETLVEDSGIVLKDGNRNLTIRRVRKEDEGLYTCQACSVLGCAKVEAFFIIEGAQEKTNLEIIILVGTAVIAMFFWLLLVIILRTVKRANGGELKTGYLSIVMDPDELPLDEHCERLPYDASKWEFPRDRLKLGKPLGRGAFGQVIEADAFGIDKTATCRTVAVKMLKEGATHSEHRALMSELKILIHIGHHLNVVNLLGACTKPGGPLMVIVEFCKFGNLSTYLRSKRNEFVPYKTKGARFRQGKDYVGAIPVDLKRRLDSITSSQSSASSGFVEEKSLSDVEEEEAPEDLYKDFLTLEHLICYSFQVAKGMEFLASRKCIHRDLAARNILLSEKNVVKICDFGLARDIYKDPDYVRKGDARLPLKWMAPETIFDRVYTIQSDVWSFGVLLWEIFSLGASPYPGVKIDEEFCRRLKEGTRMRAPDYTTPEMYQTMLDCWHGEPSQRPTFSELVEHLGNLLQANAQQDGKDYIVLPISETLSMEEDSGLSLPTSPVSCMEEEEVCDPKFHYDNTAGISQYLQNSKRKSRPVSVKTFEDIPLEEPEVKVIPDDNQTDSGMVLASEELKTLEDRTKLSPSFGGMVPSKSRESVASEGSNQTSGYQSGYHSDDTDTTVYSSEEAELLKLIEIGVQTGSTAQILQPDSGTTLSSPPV
Assay: KDR cellular assay (KDR receptor phosphorylation ELISA)
Conditions: KDR transfected 3T3 (embryonic mouse) cells, VEGF stimulated; read-out: IC50 inhibition of KDR phosphorylation
Experimental: The ability of compounds to inhibit KDR receptor phosphorylation in cells was measured by ELISA following the protocol outlined below. KDR transfected 3T3 (embryonic mouse) cells added to 96-well tissue culture plates at 20,000 cells/well. […] As assay plates developed, the plates were each monitored on a Molecular Devices Spectramax set to 650 nm, until the signal in the high control wells was around 0.6 OD and the signal in the negative control wells was around 0.1-0.15 OD. […]

# compound, endpoint label, value observed
records = [
    ("Cn1cc(Nc2ncc(C(F)(F)F)c(N[C@H]3[C@@H](C(N)=O)C[C@H]4C[C@@H]3C4(C)C)n2)cn1 [Example 167]", "IC50", "0.1 to 1 µM"),
    ("CC(C)NC(=O)[C@H]1CCC[C@H]1Nc1nc(Nc2cnn(CCN3CCOCC3)c2)ncc1Cl [Example 164]", "IC50", "0.1 to 1 µM"),
    ("NC(=O)[C@@H]1[C@H](Nc2nc(Nc3cnn(Cc4ccccc4Cl)c3)ncc2Cl)[C@H]2C=C[C@@H]1C2 [Example 161]", "IC50", "< 0.1 µM"),
]

// fetch IC50 given entry NC(=O)[C@@H]1CCC[C@@H]1Nc1nc(Nc2cnn(C3CCNCC3)c2)ncc1Cl.NC(=O)[C@H]1CCC[C@H]1Nc1nc(Nc2cnn(C3CCNCC3)c2)ncc1Cl (mixture of isomers) [Example 136] 0.1 to 1 µM

// fetch IC50 given entry Cc1c(Nc2ncc(Br)c(N[C@H]3[C@@H](C(N)=O)C[C@H]4C[C@@H]3C4(C)C)n2)cnn1C [Example 185] 0.1 to 1 µM

// fetch IC50 given entry NC(=O)[C@@H]1[C@H](Nc2nc(Nc3cnn(Cc4ccccc4)c3)ncc2Cl)[C@H]2C=C[C@@H]1C2 [Example 144] < 0.1 µM
